B1: CROP (parent)
chain: VFGRGDNISDVSKFLEDDKWMEE

Variants of: B1
PROTOCOL NOTES: protein stability index of a GFP-peptide fusion (GPS, HEK-293T) (PSI 1-6); higher = more stable;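 also: lentivirally expressed fusions sorted by FACS into six bins by GFP to DsRed ratio, PSI derived from sequencing read proportions per bin multiplied by bin number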
CONDITION INFO: c terminus: native
MEASURE NAME: protein stability index
The response must contain the number and no unit.

### Prompt So what's the measured protein stability index for this one? VFGRGLNISDVSKFLEDDKWMEE
### Response 2.91

### Prompt So what's the measured protein stability index for this one? VFGRGDNISDVSKFLGDDKWMEE
### Response 2.4

### Prompt So what's the measured protein stability index for this one? VFGRGDNISDVSKFLKDDKWMEE
### Response 1.97

### Prompt So what's the measured protein stability index for this one? VFGRGDNISDVSKFLEDDKWAEE
### Response 1.86

### Prompt So what's the measured protein stability index for this one? VFGRGDNISDVSAFLEDDKWMEE
### Response 2.29

### Prompt So what's the measured protein stability index for this one? VFGRGDNISDVSKFLEDDKWMYE
### Response 3.73

### Prompt So what's the measured protein stability index for this one? VFGRGWNISDVSKFLEDDKWMEE
### Response 4.02

### Prompt So what's the measured protein stability index for this one? VFGRGDNISDVSKFVEDDKWMEE
### Response 1.94

### Prompt So what's the measured protein stability index for this one? VFGRGDNISDVSKFLEDDKWCEE
### Response 3.53

### Prompt So what's the measured protein stability index for this one? VFGVGDNISDVSKFLEDDKWMEE
### Response 1.9

### Prompt So what's the measured protein stability index for this one? VFGRGDNISDVSKFNEDDKWMEE
### Response 3.32

### Prompt So what's the measured protein stability index for this one? VFGRGDNITDVSKFLEDDKWMEE
### Response 2.43

### Prompt So what's the measured protein stability index for this one? VFGRGDNISKVSKFLEDDKWMEE
### Response 1.99

### Prompt So what's the measured protein stability index for this one? VFGRGDNISDVSKFLEDDSWMEE
### Response 3.53

### Prompt So what's the measured protein stability index for this one? VFGRGDNISDVSKFLEQDKWMEE
### Response 2

### Prompt So what's the measured protein stability index for this one? VFGRGDNISDVSKFQEDDKWMEE
### Response 3.7

### Prompt So what's the measured protein stability index for this one? VFGRGDNISDVSKFLEDDKWMRE
### Response 3.32
